Below: a set of entries, each annotated with reported Kd.
target.or.test.system: GDP-bound KRAS wild-type protein (Homo sapiens)
Sequence (P01116 1-188 isoform P01116-2): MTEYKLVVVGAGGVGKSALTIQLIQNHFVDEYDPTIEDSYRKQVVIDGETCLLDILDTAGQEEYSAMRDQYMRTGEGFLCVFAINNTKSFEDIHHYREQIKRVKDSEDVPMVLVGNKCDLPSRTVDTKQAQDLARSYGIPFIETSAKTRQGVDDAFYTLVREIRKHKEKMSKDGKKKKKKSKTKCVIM
protocol.summary: Binding to KRAS by surface plasmon resonance (SPR), dissociation constant KD
assay.setup: 1:1 binding model
Where a SMILES comes first, the peptide text is derived from it. Bridges are numbered along the chain shown (N, C = ends). [ ]: non-standard residue; d: D form. The star is where a group is joined. hPhe(3-Cl-4-CF3) = N[C@@H](CCc1ccc(C(F)(F)F)c(Cl)c1)C(=O)O; NEtPhe(4-Me) = CCN[C@@H](Cc1ccc(C)cc1)C(=O)O; NMeGly(cPent) = CN[C@H](C(=O)O)C1CCCC1; Hyp = O=C(O)[C@@H]1C[C@@H](O)CN1; NMeD = CN[C@@H](CC(=O)O)C(=O)O; NMeL = CN[C@@H](CC(C)C)C(=O)O; Morpholide = C1CN(*)CCO1; NMeA = CN[C@@H](C)C(=O)O; Ac5c = NC1(C(=O)O)CCCC1; Aze = O=C(O)[C@@H]1CCN1; X4 = C1CCC(*)OC1; Sar = CNCC(=O)O
Numbers only; they are read as pM.

// solved cases for Kd follow
INSERT INTO assay_data (compound, target_or_test_system, readout_label, unit_of_measure, obs_value) VALUES
  ('CC[C@H](C)[C@@H]1NC(=O)[C@H](CC(C)C)N(C)C(=O)C[C@@H](C(=O)N2CCOCC2)N(C)C(=O)[C@H](C2CCCC2)N(C)C(=O)C2(CCCC2)NC(=O)[C@@H]2C[C@@H](OC3CCCCO3)CN2C(=O)[C@H](CCc2ccc(C(F)(F)F)c(Cl)c2)NC(=O)CN(C)C(=O)[C@H](Cc2ccc(C)cc2)N(CC)C(=O)CN(C)C(=O)CN(C)C1=O (stereo partly drawn) [PP0068] ([NMeL]I[Sar][Sar][NEtPhe(4-Me)][Sar][hPhe(3-Cl-4-CF3)][Hyp](X4)[Ac5c][NMeGly(cPent)][NMeD]-Morpholide; lactam N-11)', 'GDP-bound KRAS wild-type protein (Homo sapiens)', 'Kd', 'pM', 140),
  ('CCC[C@H]1C(=O)N[C@@H]([C@@H](C)CC)C(=O)N(C)CC(=O)N(C)[C@H]2C/C=C\CCN(C2=O)[C@@H](Cc2ccc(C)cc2)C(=O)N(C)CC(=O)N[C@@H](CCc2cc(F)c(C(F)(F)F)c(F)c2)C(=O)N2C[C@H](OCC)C[C@H]2C(=O)NC2(CC(C)(C)C2)C(=O)N(C)[C@@H](CC2CC2)C(=O)N(C)[C@H](C(=O)N(C)C)CC(=O)N1C', 'GDP-bound KRAS wild-type protein (Homo sapiens)', 'Kd', 'pM', 600),
  ('CCC[C@H]1C(=O)N[C@@H]([C@@H](C)CC)C(=O)N(C)CC(=O)N(C)[C@H]2C/C=C\CCN(C2=O)[C@@H](Cc2ccc(C)cc2)C(=O)N(C)CC(=O)N[C@@H](CCc2ccc(Cl)c(Cl)c2)C(=O)N2C[C@H](OC(C)C)C[C@H]2C(=O)NC2(CC(C)(C)C2)C(=O)N(C)[C@@H](C(CC)CC)C(=O)N(C)[C@H](C(=O)N(C)C)CC(=O)N1C', 'GDP-bound KRAS wild-type protein (Homo sapiens)', 'Kd', 'pM', 740),
  ('CC[C@H](C)[C@@H]1NC(=O)[C@H](CC(C)C)N(C)C(=O)C[C@@H](C(=O)N2CCOCC2)N(C)C(=O)[C@H](C2CCCC2)N(C)C(=O)C2(CCCC2)NC(=O)[C@@H]2C[C@@H](OC3CCCCO3)CN2C(=O)[C@H](CCc2ccc(C(F)(F)F)c(Cl)c2)NC(=O)CN(C)C(=O)[C@H](Cc2ccc(C)cc2)N(CC)C(=O)[C@@H]2CCN2C(=O)[C@H](C)N(C)C1=O (stereo partly drawn) [PP0067] ([NMeL]I[NMeA][Aze][NEtPhe(4-Me)][Sar][hPhe(3-Cl-4-CF3)][Hyp](X4)[Ac5c][NMeGly(cPent)][NMeD]-Morpholide; lactam N-11)', 'GDP-bound KRAS wild-type protein (Homo sapiens)', 'Kd', 'pM', 72),
  ('CCO[C@@H]1C[C@H]2C(=O)NC3(CCC3)C(=O)N(C)[C@@H](C3CCCC3)C(=O)N(C)[C@H](C(=O)N(C)CC)CC(=O)N(C)[C@@H](CC(C)C)C(=O)N[C@@H]([C@@H](C)CC)C(=O)N(C)CC(=O)N(C)[C@H]3C/C=C\CCN(C3=O)[C@@H](Cc3ccc(C(F)(F)F)cc3)C(=O)N(C)CC(=O)N[C@@H](CCc3ccc(C(F)(F)F)c(Cl)c3)C(=O)N2C1', 'GDP-bound KRAS wild-type protein (Homo sapiens)', 'Kd', 'pM', 83);

In the following, a different compound is considered.
Value lookup for Kd; key = `CCC[C@H]1C(=O)N[C@@H]([C@@H](C)CC)C(=O)N(C2CC2)CC(=O)N(C)[C@H]2C/C=C\CCN(C2=O)[C@@H](Cc2ccc(C)cc2)C(=O)N(C)CC(=O)N[C@@H](CCc2ccc(Cl)c(Cl)c2)C(=O)N2C[C@H](OCC)C[C@H]2C(=O)NC2(CC(C)(C)C2)C(=O)N(C)[C@@H](C2CCCC2)C(=O)N(C)[C@H](C(=O)N(C)C)CC(=O)N1C`
910

---

Measured pIC50 values are reported for all entries that follow.
System: human lung cancer strain NCI-H441
Format: cell-based
Where a SMILES comes first, the peptide text is derived from it. Bridges are numbered along the chain shown (N, C = ends). [ ]: non-standard residue; d: D form. The star is where a group is joined. hPhe(3-Cl-4-CF3) = N[C@@H](CCc1ccc(C(F)(F)F)c(Cl)c1)C(=O)O; NMePhe(4-Me) = CN[C@@H](Cc1ccc(C)cc1)C(=O)O; NMeGly(cPent) = CN[C@H](C(=O)O)C1CCCC1; NMeD = CN[C@@H](CC(=O)O)C(=O)O; NMeL = CN[C@@H](CC(C)C)C(=O)O; Morpholide = C1CN(*)CCO1; NMeA = CN[C@@H](C)C(=O)O; Ac5c = NC1(C(=O)O)CCCC1; Aze = O=C(O)[C@@H]1CCN1; NEtG = CCNCC(=O)O
Schema: pIC50 number; meaning minus log10 of the concentration expressed in molar units.

INSERT INTO assay_data (compound, obs_value) VALUES
  ('CC[C@H](C)[C@@H]1NC(=O)[C@H](CC(C)C)N(C)C(=O)C[C@@H](C(=O)N2CCOCC2)N(C)C(=O)[C@H](C2CCCC2)N(C)C(=O)C2(CCCC2)NC(=O)[C@@H]2CCCN2C(=O)[C@H](CCc2ccc(C(F)(F)F)c(Cl)c2)NC(=O)CN(CC)C(=O)[C@H](Cc2ccc(C)cc2)N(C)C(=O)[C@@H]2CCN2C(=O)[C@H](C)N(C)C1=O [PP0004] ([NMeL]I[NMeA][Aze][NMePhe(4-Me)][NEtG][hPhe(3-Cl-4-CF3)]P[Ac5c][NMeGly(cPent)][NMeD]-Morpholide; lactam N-11)', 7.28),
  ('CC[C@H](C)[C@@H]1NC(=O)[C@H](CC)N(C)C(=O)C[C@@H](C(=O)N(C)C)N(C)C(=O)[C@H](C2CCCC2)N(C)C(=O)C2(CCC2)N(C)C(=O)[C@@H]2CCCN2C(=O)[C@H](CCc2cc(F)c(C(F)(F)F)c(F)c2)NC(=O)CN(C)C(=O)[C@H](Cc2ccc(C)cc2)N2CC/C=C\C[C@@H](C2=O)N(C)C(=O)CN(C)C1=O [PP1782]', 8.17),
  ('CCC[C@H]1C(=O)N[C@@H](C2CCCC2)C(=O)N(C)CC(=O)N(C)[C@H]2C/C=C\CCN(C2=O)[C@@H](Cc2ccc(C)cc2)C(=O)N(C)CC(=O)N[C@@H](CCc2cc(F)c(C(F)(F)F)c(F)c2)C(=O)N2CC3(CC3)C[C@H]2C(=O)NC2(CC(C)(C)C2)C(=O)N(C)[C@@H](CC(C)(C)C)C(=O)N(C)[C@H](C(=O)N(C)C)CC(=O)N1C [PP2999]', 7.94),
  ('CC[C@H](C)[C@@H]1NC(=O)[C@H](C2CC2)N(C)C(=O)C[C@@H](C(=O)N(C)C)N(C)C(=O)[C@H](C2CCCC2)N(C)C(=O)C2(CCC2)N(C)C(=O)[C@@H]2C[C@@H](C)CN2C(=O)[C@H](CCc2cc(F)c(C(F)(F)F)c(F)c2)NC(=O)CN(C)C(=O)[C@H](Cc2ccc(C)cc2)N2CC/C=C\C[C@@H](C2=O)N(C)C(=O)CN(C)C1=O [PP1788]', 8.21);

Now for the compound whose pIC50 we want.
// lookup pIC50 | system=human lung cancer strain NCI-H441 | key= CCC[C@H]1C(=O)N[C@@H](C2CCCC2)C(=O)N(C)CC(=O)N(C)[C@H]2C/C=C\CCN(C2=O)[C@@H](Cc2ccc(C)cc2)C(=O)N(C)CC(=O)N[C@@H](CCc2ccc(C(F)(F)F)c(OC)c2)C(=O)N2C[C@H](OCC)C[C@H]2C(=O)NC2(CC(C)(C)C2)C(=O)N(C)[C@@H](C2CCCC2)C(=O)N(C)[C@H](C(=O)N(C)C)CC(=O)N1C [PP2992]
8.12
